Target: T1, MET928 (cMET protein derived from construct 25-928) (human, UniProt P08581 25-928)
T1 construct: MET ectodomain, residues 1-24 are the leader; produced in Lec 8 cells; background text says the ectodomain is furin-cleaved into alpha (25-307) and beta chains; biotinylated form used in selections; also called MET928 extracellular domain; Met extracellular domain
T1 sequence (P08581 25-928): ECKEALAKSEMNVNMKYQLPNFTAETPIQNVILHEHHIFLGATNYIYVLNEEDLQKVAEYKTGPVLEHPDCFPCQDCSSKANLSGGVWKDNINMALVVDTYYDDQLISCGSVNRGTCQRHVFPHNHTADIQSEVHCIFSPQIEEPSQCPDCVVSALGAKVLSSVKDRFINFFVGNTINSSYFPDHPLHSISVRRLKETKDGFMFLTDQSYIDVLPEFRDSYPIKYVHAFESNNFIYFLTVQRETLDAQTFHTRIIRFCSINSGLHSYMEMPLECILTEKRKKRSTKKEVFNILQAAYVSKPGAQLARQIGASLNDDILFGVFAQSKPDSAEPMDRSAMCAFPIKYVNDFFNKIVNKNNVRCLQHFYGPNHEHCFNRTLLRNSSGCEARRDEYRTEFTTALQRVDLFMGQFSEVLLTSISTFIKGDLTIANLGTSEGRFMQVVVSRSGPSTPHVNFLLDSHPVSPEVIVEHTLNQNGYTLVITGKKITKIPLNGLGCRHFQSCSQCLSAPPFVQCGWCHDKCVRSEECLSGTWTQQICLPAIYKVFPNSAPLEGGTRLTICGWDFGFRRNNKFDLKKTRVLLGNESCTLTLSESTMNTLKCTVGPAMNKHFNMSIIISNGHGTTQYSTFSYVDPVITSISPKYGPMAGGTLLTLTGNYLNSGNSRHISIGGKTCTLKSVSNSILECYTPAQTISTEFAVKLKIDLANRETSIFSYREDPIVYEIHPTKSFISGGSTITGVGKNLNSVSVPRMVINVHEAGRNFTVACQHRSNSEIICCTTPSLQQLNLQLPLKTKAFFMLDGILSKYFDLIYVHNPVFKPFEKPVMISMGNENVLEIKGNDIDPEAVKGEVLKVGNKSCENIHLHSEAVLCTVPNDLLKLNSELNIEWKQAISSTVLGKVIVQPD
Assay: Biacore SPR, MET-928 on chip, scFv format
pKd: −log10 of the molar value.
RESULT_TYPE: pKd

>>> reported_result("107_A08 scFv (6xHis/tri-Flag tags) (scFv, 7A2 derivative, only VH CDR3 changed; not shown: 6xHis/tri-FLAG tags of pSANG10-3F) scFv: QMQLVQSGAEVKKPGAPVKVSCKVSGYTFTDYYMHWVQQAPGKGLEWMGLVDPEDGETIYAEKFQGRVTITADTSTDTAYMELSSLRSEDTAVYYCATDATTPYWGMVEWGQGTLVTVSSLEGGGGSGGGGSGGGASDIQMTQSPSSLSASVGDRVTITCQASQDISNYLNWYQQKPGRAPKVLIYDASNLETGVPSRFSGSGSGTEFTLTISNLRPDDFATYYCQQGDSFPLTFGGGTKVEIK")
9.56
